Record form. Attribute: Ke. Fill in for each entry.
- target desc: Delta-type opioid receptor (Homo sapiens) (UniProt P41143)
- assay protocol: Competitive antagonist activity against human delta opioid receptor overexpressed in CHO cells assessed as inhibition of DPDPE-stimulated [35S]GTP-gamma-S binding by liquid scintillation counting
- Type: functional, cell-based

In the examples that follow, each entry is paired with its recorded Ke.
Req: I have this compound here, `CC(C)=CCc1c(O)cc(/C=C/c2ccc(O)cc2)cc1O` , and I need its recorded Ke.
Resp: > 10 µM

Req: I have this compound here, `CC(C)=CCC/C(C)=C/Cc1c(O)cc(O)cc1/C=C/c1ccc(O)c(O)c1` , and I need its recorded Ke.
Resp: > 10 µM

Req: I have this compound here, `COc1cc(/C=C/c2ccc(OC)c(OC)c2)c(C/C=C(\C)CCC=C(C)C)c(OC)c1` , and I need its recorded Ke.
Resp: > 10 µM

Req: I have this compound here, `COc1cc(/C=C/c2ccc(O)c(O)c2)c(C/C=C(\C)CCC=C(C)C)c(OC)c1` , and I need its recorded Ke.
Resp: > 10 µM

Req: I have this compound here, `CC(C)=CCc1c(O)cc(/C=C/c2ccc(O)c(O)c2)cc1O` , and I need its recorded Ke.
Resp: > 10 µM

Req: I have this compound here, `CC(C)=CCC/C(C)=C/Cc1c(O)cc(/C=C/c2ccc(O)c(O)c2)cc1O` , and I need its recorded Ke.
Resp: > 10 µM

Respectfully, I request Ke for each entry included below.
1. CC(C)=CCC/C(C)=C/CC/C(C)=C/Cc1c(O)cc(/C=C/c2ccc(O)cc2)cc1O
2. COc1cc(/C=C/c2ccc(OC)c(O)c2CC=C(C)C)c(C/C=C(\C)CCC=C(C)C)c(OC)c1
3. COc1cc(/C=C/c2ccc(OC)c(OC)c2CC=C(C)C)c(C/C=C(\C)CCC=C(C)C)c(OC)c1

Resp:
6 µM
> 10 µM
> 10 µM

Respectfully, I request Ke for each entry included below.
1. COc1cc(/C=C/c2cc(O)c(O)c(CC=C(C)C)c2)c(C/C=C(\C)CCC=C(C)C)c(OC)c1
2. CC(C)=CCC/C(C)=C/Cc1c(O)cc(O)cc1/C=C/c1ccc(O)c(O)c1CC=C(C)C

Resp:
1: > 10 µM; 2: 2.9 µM

---

- target desc: Kappa-type opioid receptor (Homo sapiens) (UniProt P41145)
- assay protocol: Competitive antagonist activity against human kappa opioid receptor overexpressed in CHO cells assessed as inhibition of U69,593-stimulated [35S]GTP-gamma-S binding by liquid scintillation counting
- Assay type: functional, cell-based
Record form. Attribute: Ke. Fill in for each entry.

In the examples that follow, each entry is paired with its recorded Ke.
Req: Request: Ke, test system Kappa-type opioid receptor (Homo sapiens) (UniProt P41145), entry `CC(C)=CCC/C(C)=C/Cc1c(O)cc(O)cc1/C=C/c1ccc(O)c(O)c1CC=C(C)C`
Resp: 0.2 µM

Req: Request: Ke, test system Kappa-type opioid receptor (Homo sapiens) (UniProt P41145), entry `COc1cc(/C=C/c2ccc(OC)c(O)c2CC=C(C)C)c(C/C=C(\C)CCC=C(C)C)c(OC)c1`
Resp: > 10 µM

Req: Request: Ke, test system Kappa-type opioid receptor (Homo sapiens) (UniProt P41145), entry `COc1cc(/C=C/c2ccc(OC)c(OC)c2)c(C/C=C(\C)CCC=C(C)C)c(OC)c1`
Resp: > 10 µM

Req: Request: Ke, test system Kappa-type opioid receptor (Homo sapiens) (UniProt P41145), entry `COc1cc(/C=C/c2ccc(OC)c(OC)c2CC=C(C)C)c(C/C=C(\C)CCC=C(C)C)c(OC)c1`
Resp: > 10 µM

Req: Request: Ke, test system Kappa-type opioid receptor (Homo sapiens) (UniProt P41145), entry `CC(C)=CCc1c(O)cc(/C=C/c2ccc(O)cc2)cc1O`
Resp: > 10 µM

Req: Request: Ke, test system Kappa-type opioid receptor (Homo sapiens) (UniProt P41145), entry `CC(C)=CCC/C(C)=C/Cc1c(O)cc(/C=C/c2ccc(O)c(O)c2)cc1O`
Resp: > 10 µM

Req: Request: Ke, test system Kappa-type opioid receptor (Homo sapiens) (UniProt P41145), entry `CC(C)=CCc1c(O)cc(/C=C/c2ccc(O)c(O)c2)cc1O`
Resp: > 10 µM

Req: Request: Ke, test system Kappa-type opioid receptor (Homo sapiens) (UniProt P41145), entry `COc1cc(/C=C/c2ccc(O)c(O)c2)c(C/C=C(\C)CCC=C(C)C)c(OC)c1`
Resp: > 10 µM

Respectfully, I request Ke for each entry included below.
1. COc1cc(/C=C/c2cc(O)c(O)c(CC=C(C)C)c2)c(C/C=C(\C)CCC=C(C)C)c(OC)c1
2. CC(C)=CCC/C(C)=C/Cc1c(O)cc(O)cc1/C=C/c1ccc(O)c(O)c1
3. CC(C)=CCC/C(C)=C/CC/C(C)=C/Cc1c(O)cc(/C=C/c2ccc(O)cc2)cc1O

Resp:
1. 0.15 µM
2. > 10 µM
3. 9 µM

---

- target desc: Mu-type opioid receptor (Homo sapiens) (UniProt P35372)
- assay protocol: Competitive antagonist activity against human Mu opioid receptor overexpressed in CHO cells assessed as inhibition of DAMGO-stimulated [35S]GTP-gamma-S binding by liquid scintillation counting
- Assay type: functional, cell-based
quantity: Ke

Respectfully, I request Ke for each entry included below.
1. CC(C)=CCC/C(C)=C/Cc1c(O)cc(O)cc1/C=C/c1ccc(O)c(O)c1
2. COc1cc(/C=C/c2cc(O)c(O)c(CC=C(C)C)c2)c(C/C=C(\C)CCC=C(C)C)c(OC)c1
3. COc1cc(/C=C/c2ccc(OC)c(O)c2CC=C(C)C)c(C/C=C(\C)CCC=C(C)C)c(OC)c1
4. CC(C)=CCC/C(C)=C/CC/C(C)=C/Cc1c(O)cc(/C=C/c2ccc(O)cc2)cc1O
5. COc1cc(/C=C/c2ccc(OC)c(OC)c2CC=C(C)C)c(C/C=C(\C)CCC=C(C)C)c(OC)c1
6. COc1cc(/C=C/c2ccc(O)c(O)c2)c(C/C=C(\C)CCC=C(C)C)c(OC)c1

Resp:
1. > 10 µM
2. > 10 µM
3. > 10 µM
4. 3 µM
5. > 10 µM
6. > 10 µM

Respectfully, I request Ke for each entry included below.
1. CC(C)=CCc1c(O)cc(/C=C/c2ccc(O)c(O)c2)cc1O
2. COc1cc(/C=C/c2ccc(OC)c(OC)c2)c(C/C=C(\C)CCC=C(C)C)c(OC)c1
3. CC(C)=CCC/C(C)=C/Cc1c(O)cc(O)cc1/C=C/c1ccc(O)c(O)c1CC=C(C)C
4. CC(C)=CCC/C(C)=C/Cc1c(O)cc(/C=C/c2ccc(O)c(O)c2)cc1O
5. CC(C)=CCc1c(O)cc(/C=C/c2ccc(O)cc2)cc1O

Resp:
> 10 µM
> 10 µM
0.57 µM
> 10 µM
> 10 µM
